Molecular target: angiotensin II contracture of rabbit aortic strip (Oryctolagus cuniculus)
Construct: A spiral preparation of the aorta having a width of 1.5 to 2 mm and a length of 15 to 20 mm was prepared therefrom; from tissue; host or cells: thoracic aorta of male New Zealand white rabbit, spiral strip
Sequence (P34976 1-359): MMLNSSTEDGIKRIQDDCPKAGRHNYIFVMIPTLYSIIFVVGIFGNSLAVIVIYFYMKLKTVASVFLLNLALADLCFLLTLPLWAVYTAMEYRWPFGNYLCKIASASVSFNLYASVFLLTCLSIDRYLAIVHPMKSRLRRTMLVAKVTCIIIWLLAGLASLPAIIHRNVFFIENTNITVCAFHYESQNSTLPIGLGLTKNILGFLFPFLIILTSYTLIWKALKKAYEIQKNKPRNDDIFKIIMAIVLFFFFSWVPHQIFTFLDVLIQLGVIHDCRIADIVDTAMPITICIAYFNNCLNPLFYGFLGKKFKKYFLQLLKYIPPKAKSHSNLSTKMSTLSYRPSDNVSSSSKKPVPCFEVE
Assay: Angiotensin II contracture antagonism through the use of rabbit aortic strip
Assay type: cell-based, rabbit (New Zealand white)
Settings: negative log of antagonist concentration giving dose ratio 2, Schild's equation, 40 min preincubation, read-out: pA2 (converted)
Property label: Kb (nM)

Worked examples follow.
Cc1ccnc2c1nc(C1CCC1)n2Cc1ccc(-c2ccccc2C(=O)O)cc1 [compound 19]    4.9
CCOc1nc2c(C)cc(C)nc2n1Cc1ccc(-c2ccccc2C(=O)O)cc1 [compound 32]    0.575

1. CCc1nc2ccc(Cl)nc2n1Cc1ccc(-c2ccccc2-c2nnn[nH]2)cc1 [compound 14]
2. CCCCc1nc2cccnc2n1Cc1ccc(-c2cc(OC)ccc2-c2nnn[nH]2)cc1 [compound 8]
Task: Of the pair 1 and 2 , name the member with the lesser recorded Kb. Write the label of whichever entry you select.
Result: 1
(1: 2.95 nM, 2: 4.27 nM)

====

biological target: angiotensin II contracture of rabbit aortic strip (Oryctolagus cuniculus, UniProt P34976); construct: A spiral preparation of the aorta having a width of 1.5 to 2 mm and a length of 15 to 20 mm was prepared therefrom; from tissue; host or cells: thoracic aorta of male New Zealand white rabbit, spiral strip; assay: Angiotensin II contracture antagonism through the use of rabbit aortic strip; assay type: cell-based, rabbit (New Zealand white); settings: negative log of antagonist concentration giving dose ratio 2, Schild's equation, 40 min preincubation, read-out: pA2 (converted)
Property label: Kb (nM)

Worked examples follow.
Cc1ccnc2c1nc(C(C)C)n2Cc1ccc(-c2ccccc2-c2nnn[nH]2)cc1    0.661
Cc1cc(C)c2nc(C3CC3)n(Cc3ccc(-c4ccccc4C(=O)O)cc3)c2n1    0.589
CCc1nc2cc(Br)cnc2n1Cc1ccc(-c2ccccc2-c2nnn[nH]2)cc1    10
CCCOc1nc2c(C)ccnc2n1Cc1ccc(-c2ccccc2-c2nnn[nH]2)cc1    0.372

1. CCCc1nc2c(C)cc(C)nc2n1Cc1ccc(-c2ccccc2C(=O)O)cc1
2. CSc1nc2c(C)ccnc2n1Cc1ccc(-c2ccccc2-c2nnn[nH]2)cc1
3. CCCc1nc2c(C)ccnc2n1Cc1ccc(-c2ccccc2C(=O)O)cc1
4. CCOc1nc2c(C)ccnc2n1Cc1ccc(-c2ccccc2-c2nnn[nH]2)cc1
Task: Order the records, beginning with the lowest Kb and ending with the highest. Record the ranking as a list of labels in the requested order.
Result: 4, 2, 1, 3
(4: 0.0263 nM, 2: 0.525 nM, 1: 1.15 nM, 3: 3.55 nM)
